test name: Solubility in 20% HPbetaCD after 24 hrs
Type: physicochemical
observed property: solubility at 24 h (mg/mL)

// solved cases for solubility at 24 h follow
>>> observed("Cc1ncccc1Oc1ncnc(OC2CCN(C(=O)OC(C)C)CC2)c1C")
15.9
>>> observed("Cc1nc(S(C)(=O)=O)ccc1Nc1ncnc(OC2CCN(C(=O)OC(C)C)CC2)c1C")
24
>>> observed("Cc1nc(S(C)(=O)=O)ccc1Nc1ncnc(OC2CCN(C(=O)OC(C)C)CC2)c1C1CC1")
17.7

A. Cc1nc(S(C)(=O)=O)ccc1Oc1ncnc(OC2CCN(C(=O)OC(C)C)CC2)c1C
B. Cc1cc(S(C)(=O)=O)ncc1Oc1ncnc(OC2CCN(C(=O)OC(C)C)CC2)c1C
Which item exceeds the other in solubility at 24 h, A or B ? Write down the label attached to your selection.
B

###

test name: Mean residence time in Beagle dog at 7.85 mg/kg, po
Type: ADME, organism-based, Canis lupus familiaris
Set-up: dose 7.85 mg/kg, route oral
measurement setup: in vivo
observed property: MRT (h)
Your answer should be a plain number; it is taken to be in h.

Quick one: MRT of COc1c(Nc2ccc(S(C)(=O)=O)nc2C)ncnc1OC1CCN(C(=O)OC(C)C)CC1 [ADP-597] ?
10.9

###

test name: Solubility in 20% HPbetaCD after 24 hrs
Assay type: physicochemical
observed property: solubility at 24 h (mg/mL)

>>> observed("Cc1cc(S(C)(=O)=O)ncc1Nc1ncnc(OC2CCN(C(=O)OC(C)C)CC2)c1C")
20.4
>>> observed("Cc1ccc(Oc2ncnc(OC3CCN(C(=O)OC(C)C)CC3)c2C)c(C)n1")
13.2

1. Cc1c(Oc2ccc(S(C)(=O)=O)cc2F)ncnc1OC1CCN(C(=O)OC(C)C)CC1
2. Cc1c(Oc2cncc(F)c2)ncnc1OC1CCN(C(=O)OC(C)C)CC1
3. Cc1nc(S(C)(=O)=O)ccc1Nc1ncnc(OC2CCN(C(=O)OC(C)C)CC2)c1C#N
4. COc1c(Nc2ccc(S(C)(=O)=O)nc2C)ncnc1OC1CCN(C(=O)OC(C)C)CC1
5. Cc1nc(S(C)(=O)=O)ccc1Nc1ncnc(OC2CCN(C(=O)OC(C)C)CC2)c1OC(F)F
hey, can you rank those compounds up there by solubility at 24 h? biggest number first please In your reply, arrange the labels in the requested order.
4, 3, 5, 2, 1
(4: 33 mg/mL, 3: 17 mg/mL, 5: 7.8 mg/mL, 2: 5.1 mg/mL, 1: 1.1 mg/mL)

###

test name: Half life in rat liver microsomes
Format: ADME, Microsome
observed property: half-life

Quick one: half-life of COc1c(Nc2ccc(S(C)(=O)=O)nc2C)ncnc1OC1CCN(C(=O)OC(C)C)CC1 ?
> 1 h

###

test name: Cmax in Beagle dog at 7.85 mg/kg, po
Type: ADME, organism-based, Canis lupus familiaris
Set-up: dose 7.85 mg/kg, route oral
measurement setup: in vivo
observed property: Cmax (µg/mL)
Your answer should be a plain number; it is taken to be in µg/mL.

Quick one: Cmax of COc1c(Nc2ccc(S(C)(=O)=O)nc2C)ncnc1OC1CCN(C(=O)OC(C)C)CC1 ?
1.98

###

test name: Cmax in cynomolgus monkey at 10 mg/kg, po
Assay type: ADME, organism-based, Macaca fascicularis
Design: dose 10 mg/kg, route oral
measurement setup: in vivo
observed property: Cmax (ng/mL)
Your answer should be a plain number; it is taken to be in ng/mL.

Quick one: Cmax of COc1c(Nc2ccc(S(C)(=O)=O)nc2C)ncnc1OC1CCN(C(=O)OC(C)C)CC1 [ADP-597] ?
4800

###

test name: AUC (0 to infinity) in Sprague-Dawley rat at 10 mg/kg, po
Format: ADME, organism-based
Design: time infinity, dose 10 mg/kg, route oral
measurement setup: plasma
observed property: AUC(0-inf) (ng·h/mL)
Your answer should be a plain number; it is taken to be in ng·h/mL.

Quick one: AUC(0-inf) of COc1c(Nc2ccc(S(C)(=O)=O)nc2C)ncnc1OC1CCN(C(=O)OC(C)C)CC1 ?
12500

###

test name: Half life in cynomolgus monkey at 10 mg/kg, po
measurement setup: in vivo
observed property: half-life (h)
Your answer should be a plain number; it is taken to be in h.

Quick one: half-life of COc1c(Nc2ccc(S(C)(=O)=O)nc2C)ncnc1OC1CCN(C(=O)OC(C)C)CC1 [ADP-597] ?
4.4

###

measured target: Cytochrome P450 2C9 (Homo sapiens)
Sequence (P11712 whole entry): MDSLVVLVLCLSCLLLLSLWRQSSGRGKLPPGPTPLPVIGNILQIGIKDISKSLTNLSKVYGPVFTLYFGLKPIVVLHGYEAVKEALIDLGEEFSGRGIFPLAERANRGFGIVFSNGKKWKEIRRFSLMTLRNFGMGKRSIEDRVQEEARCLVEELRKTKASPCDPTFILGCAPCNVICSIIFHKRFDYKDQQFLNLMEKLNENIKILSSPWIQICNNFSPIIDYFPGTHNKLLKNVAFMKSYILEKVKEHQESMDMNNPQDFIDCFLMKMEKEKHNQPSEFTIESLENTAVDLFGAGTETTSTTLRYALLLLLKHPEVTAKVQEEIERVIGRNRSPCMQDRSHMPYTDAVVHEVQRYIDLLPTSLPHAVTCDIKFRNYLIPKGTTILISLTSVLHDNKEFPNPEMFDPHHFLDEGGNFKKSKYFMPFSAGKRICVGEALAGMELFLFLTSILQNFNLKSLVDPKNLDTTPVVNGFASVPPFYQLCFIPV
observed property: IC50 (nM)
Your answer should be a plain number; it is taken to be in nM.

Report IC50 for Cc1nc(S(C)(=O)=O)ccc1Nc1ncnc(OC2CCN(C(=O)OC(C)C)CC2)c1C tested on Cytochrome P450 2C9 (Homo sapiens).
2500

###

test name: Half life in human liver microsomes
Type: ADME, Microsome
observed property: half-life

Quick one: half-life of COc1c(Nc2ccc(S(C)(=O)=O)nc2C)ncnc1OC1CCN(C(=O)OC(C)C)CC1 ?
> 1 h

###

test name: Solubility in water at pH 2
Format: physicochemical
observed property: solubility (µg/mL)
Your answer should be a plain number; it is taken to be in µg/mL.

Quick one: solubility of COc1c(Nc2ccc(S(C)(=O)=O)nc2C)ncnc1OC1CCN(C(=O)OC(C)C)CC1 [ADP-597] ?
310

###

test name: Tmax in C57Bl mouse at 10 mg/kg, po
Assay type: ADME, organism-based
Set-up: dose 10 mg/kg, route oral
measurement setup: in vivo
observed property: Tmax (h)
Your answer should be a plain number; it is taken to be in h.

Quick one: Tmax of COc1c(Nc2ccc(S(C)(=O)=O)nc2C)ncnc1OC1CCN(C(=O)OC(C)C)CC1 ?
2

###

test name: Cmax in Sprague-Dawley rat at 10 mg/kg, po
Format: ADME, organism-based
Set-up: dose 10 mg/kg, route oral
measurement setup: in vivo
observed property: Cmax (ng/mL)
Your answer should be a plain number; it is taken to be in ng/mL.

Quick one: Cmax of COc1c(Nc2ccc(S(C)(=O)=O)nc2C)ncnc1OC1CCN(C(=O)OC(C)C)CC1 [ADP-597] ?
1390

###

test name: Tmax in Beagle dog at 7.85 mg/kg, po
Format: ADME, organism-based, Canis lupus familiaris
Design: dose 7.85 mg/kg, route oral
measurement setup: in vivo
observed property: Tmax (h)
Your answer should be a plain number; it is taken to be in h.

Quick one: Tmax of COc1c(Nc2ccc(S(C)(=O)=O)nc2C)ncnc1OC1CCN(C(=O)OC(C)C)CC1 [ADP-597] ?
8

###

test name: Elimination half life in dog
measurement setup: in vivo
observed property: half-life (h)
Your answer should be a plain number; it is taken to be in h.

Quick one: half-life of COc1c(Nc2ccc(S(C)(=O)=O)nc2C)ncnc1OC1CCN(C(=O)OC(C)C)CC1 [ADP-597] ?
7

###

test name: Half life cynomolgus monkey at 25 to 400 mg administered once daily
Type: ADME, organism-based, Macaca fascicularis
measurement setup: in vivo
observed property: half-life (h)
Your answer should be a plain number; it is taken to be in h.

Quick one: half-life of CC(CO)OC(=O)N1CCC(Oc2ncnc3c2cnn3-c2ccc(S(C)(=O)=O)cc2F)CC1 (stereo unspecified) ?
41

###

test name: Solubility in 40% HPbetaCD after 24 hrs
Type: physicochemical
observed property: solubility at 24 h (µg/mL)

P. Cc1ncccc1Oc1ncnc(OC2CCN(C(=O)OC(C)C)CC2)c1C
Q. Cc1c(Oc2ccc(S(C)(=O)=O)cc2F)ncnc1OC1CCN(C(=O)OC(C)C)CC1
Which item exceeds the other in solubility at 24 h, P or Q ? Write down the label attached to your selection.
P

1. Cc1c(Nc2ccc(S(C)(=O)=O)cc2F)ncnc1OC1CCN(C(=O)OC(C)C)CC1
2. Cc1ccncc1Oc1ncnc(OC2CCN(C(=O)OC(C)C)CC2)c1C
# min-compare on solubility at 24 h between 1 and 2 Write down the label attached to your selection.
2

###

test name: Mean residence time in cynomolgus monkey at 10 mg/kg, po
Type: ADME, organism-based, Macaca fascicularis
Set-up: dose 10 mg/kg, route oral
measurement setup: in vivo
observed property: MRT (h)
Your answer should be a plain number; it is taken to be in h.

Quick one: MRT of COc1c(Nc2ccc(S(C)(=O)=O)nc2C)ncnc1OC1CCN(C(=O)OC(C)C)CC1 ?
8.4

###

test name: Clearance in iv dosed Beagle dog
Assay type: ADME, organism-based, Canis lupus familiaris
measurement setup: in vivo
observed property: clearance (mL/min/kg)

A. CC(C)OC(=O)N1CCC(Oc2ncnc3c2cnn3-c2ccc(S(C)(=O)=O)cc2F)CC1
B. COc1c(Nc2ccc(S(C)(=O)=O)nc2C)ncnc1OC1CCN(C(=O)OC(C)C)CC1
# min-compare on clearance between A and B Write down the label attached to your selection.
B
(B: 0.667 mL/min/kg, A: 2 mL/min/kg)
